The values you see were collected from patent US9598434B2.

# assay-system: human 5-HT2C receptor (Homo sapiens, UniProt P28335)
# Construct: expressed in transfected cells
# Sequence (P28335 33-458): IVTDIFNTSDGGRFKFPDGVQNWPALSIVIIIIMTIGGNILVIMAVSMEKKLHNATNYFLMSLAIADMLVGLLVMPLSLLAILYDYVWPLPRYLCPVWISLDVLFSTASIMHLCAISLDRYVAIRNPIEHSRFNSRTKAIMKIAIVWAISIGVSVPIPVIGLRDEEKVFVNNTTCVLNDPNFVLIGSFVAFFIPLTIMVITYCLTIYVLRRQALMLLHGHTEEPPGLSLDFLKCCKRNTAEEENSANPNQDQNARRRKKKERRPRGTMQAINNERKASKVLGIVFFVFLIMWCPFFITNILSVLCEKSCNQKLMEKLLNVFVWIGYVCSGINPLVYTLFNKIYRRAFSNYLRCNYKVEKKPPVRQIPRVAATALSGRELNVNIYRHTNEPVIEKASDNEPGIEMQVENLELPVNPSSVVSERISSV
# assay-details: Evaluation of 5-HT2C receptor agonist activity (intracellular calcium increase, FLIPR, CHO cells stably expressing the receptor)
# Assay type: cell-based
# experimental-parameters: CHO, read-out: 5-HT2C agonist activity Emax
Emax overview
measurement-type: Emax

- compound: "FCCCN1CCOc2cc3c(c(C4CC4)c21)CCNCC3.O=C(O)/C=C/C(=O)O [Example 141]"
  recorded-value: "100%"
- compound: "COCCN1CCOc2cc3c(c(C)c21)CCNCC3.O=C(O)/C=C/C(=O)O [Example 90]"
  recorded-value: "113%"
- compound: "CC1CNc2cc3c(cc2O1)CCNCC3 (centres unmarked) [Example 50]"
  recorded-value: "98%"
- compound: "COCC1(CN2CCOc3cc4c(c(C5CC5)c32)CCNCC4)CC1 [Example 105]"
  recorded-value: "111%"
- compound: "CO[C@H](CF)CN1CCOc2cc3c(c(C4CC4)c21)CCNCC3 [Example 287]"
  recorded-value: "97%"
- compound: "COCCCN1CCOc2cc3c(cc21)CCNCC3.O=C(O)/C=C/C(=O)O [Example 59]"
  recorded-value: "108%"
- compound: "CC(C)OCCN1CCOc2cc3c(cc21)CCNCC3 [Example 76]"
  recorded-value: "116%"
- compound: "Clc1c2c(cc3c1N(CC1CCC1)CCC3)CCNCC2 [Example 42]"
  recorded-value: "97%"

###

melting point overview

- substance-smiles: "CCCN1C(=O)CCc2cc3c(c(-c4ccccc4)c21)CCNCC3.O=C(O)CCC(=O)O"
  melting point: "196 to 200 °C"
- substance-smiles: "COCCN1CCC(C)(C)c2cc3c(cc21)CCNCC3.O=C(O)/C=C/C(=O)O"
  melting point: "172 to 175 °C"
- substance-smiles: "Cl.FC(F)(F)CN1CCOc2cc3c(c(Br)c21)CCNCC3"
  melting point: "214 to 215 °C"

###

# assay-system: human 5-HT2C receptor (Homo sapiens)
# Construct: expressed in transfected cells
# assay-details: Evaluation of 5-HT2C receptor agonist activity (intracellular calcium increase, FLIPR, CHO cells stably expressing the receptor)
# Type: cell-based
# experimental-parameters: CHO cells stably expressing INI type human 5-HT2C receptor; intracellular Ca increase; logistic regression; read-out: 5-HT2C agonist activity EC50

- compound: "CO[C@H](CF)CN1CCOc2cc3c(c(C4CC4)c21)CCNCC3"
  readout-units: "nM"
  EC50: 1
- compound: "CC(C)CN1CCOc2cc3c(cc21)CCNCC3"
  readout-units: "nM"
  EC50: 4
- compound: "CC(C)CN1CCCc2cc3c(c(Cl)c21)CCNCC3.O=C(O)/C=C/C(=O)O [Example 2, monofumarate]"
  readout-units: "nM"
  EC50: 0.64
- compound: "CCc1c2c(cc3c1N(CCOC)CCO3)CCNCC2.O=C(O)/C=C/C(=O)O"
  readout-units: "nM"
  EC50: 4.4
- compound: "Clc1cccc(CN2CCOc3cc4c(c(C5CC5)c32)CCNCC4)c1.O=C(O)CCC(=O)O"
  readout-units: "nM"
  EC50: 1.9
- compound: "c1c2c(c(C3CC3)c3c1OCCN3)CCNCC2"
  readout-units: "nM"
  EC50: 12
- compound: "Fc1ccc(Cl)cc1CN1CCOc2cc3c(c(C4CC4)c21)CCNCC3.O=C(O)/C=C/C(=O)O"
  readout-units: "nM"
  EC50: 3.8
- compound: "COCc1cccc(CN2CCOc3cc4c(c(C5CC5)c32)CCNCC4)c1.O=C(O)/C=C/C(=O)O"
  readout-units: "nM"
  EC50: 0.64
- compound: "CCOCCN1CCOc2cc3c(c(C4CC4)c21)CCNCC3.O=C(O)/C=C/C(=O)O"
  readout-units: "nM"
  EC50: 1.1
- compound: "Fc1cc(F)cc(CN2CCOc3cc4c(c(C5CC5)c32)CCNCC4)c1.O=C(O)/C=C/C(=O)O"
  readout-units: "nM"
  EC50: 4.2
- compound: "COCCCN1CCOc2cc3c(c(C4CC4)c21)CCNCC3.O=C(O)/C=C/C(=O)O"
  readout-units: "nM"
  EC50: 1.1
- compound: "CC(C)CN1CCCc2cc3c(cc21)CCNCC3"
  readout-units: "nM"
  EC50: 2.1
- compound: "Fc1ccccc1CN1CCOc2cc3c(c(C4CC4)c21)CCNCC3.O=C(O)/C=C/C(=O)O"
  readout-units: "nM"
  EC50: 1.3
- compound: "CC(=O)N1CCCc2cc3c(cc21)CCNCC3.O=C(O)/C=C/C(=O)O"
  readout-units: "nM"
  EC50: 32.9
- compound: "CC(C)C(=O)N1CCCc2cc3c(c(Cl)c21)CCNCC3.Cl"
  readout-units: "nM"
  EC50: 0.81
- compound: "O=C(O)/C=C/C(=O)O.c1ccc(N2CCOc3cc4c(cc32)CCNCC4)cc1"
  readout-units: "nM"
  EC50: 79
- compound: "Cc1cccc(CN2CCOc3cc4c(c(C5CC5)c32)CCNCC4)c1.O=C(O)/C=C/C(=O)O"
  readout-units: "nM"
  EC50: 2.3
